- TARGET: ATP-dependent translocase ABCB1 (Homo sapiens, UniProt P08183)
- Sequence (P08183 whole entry): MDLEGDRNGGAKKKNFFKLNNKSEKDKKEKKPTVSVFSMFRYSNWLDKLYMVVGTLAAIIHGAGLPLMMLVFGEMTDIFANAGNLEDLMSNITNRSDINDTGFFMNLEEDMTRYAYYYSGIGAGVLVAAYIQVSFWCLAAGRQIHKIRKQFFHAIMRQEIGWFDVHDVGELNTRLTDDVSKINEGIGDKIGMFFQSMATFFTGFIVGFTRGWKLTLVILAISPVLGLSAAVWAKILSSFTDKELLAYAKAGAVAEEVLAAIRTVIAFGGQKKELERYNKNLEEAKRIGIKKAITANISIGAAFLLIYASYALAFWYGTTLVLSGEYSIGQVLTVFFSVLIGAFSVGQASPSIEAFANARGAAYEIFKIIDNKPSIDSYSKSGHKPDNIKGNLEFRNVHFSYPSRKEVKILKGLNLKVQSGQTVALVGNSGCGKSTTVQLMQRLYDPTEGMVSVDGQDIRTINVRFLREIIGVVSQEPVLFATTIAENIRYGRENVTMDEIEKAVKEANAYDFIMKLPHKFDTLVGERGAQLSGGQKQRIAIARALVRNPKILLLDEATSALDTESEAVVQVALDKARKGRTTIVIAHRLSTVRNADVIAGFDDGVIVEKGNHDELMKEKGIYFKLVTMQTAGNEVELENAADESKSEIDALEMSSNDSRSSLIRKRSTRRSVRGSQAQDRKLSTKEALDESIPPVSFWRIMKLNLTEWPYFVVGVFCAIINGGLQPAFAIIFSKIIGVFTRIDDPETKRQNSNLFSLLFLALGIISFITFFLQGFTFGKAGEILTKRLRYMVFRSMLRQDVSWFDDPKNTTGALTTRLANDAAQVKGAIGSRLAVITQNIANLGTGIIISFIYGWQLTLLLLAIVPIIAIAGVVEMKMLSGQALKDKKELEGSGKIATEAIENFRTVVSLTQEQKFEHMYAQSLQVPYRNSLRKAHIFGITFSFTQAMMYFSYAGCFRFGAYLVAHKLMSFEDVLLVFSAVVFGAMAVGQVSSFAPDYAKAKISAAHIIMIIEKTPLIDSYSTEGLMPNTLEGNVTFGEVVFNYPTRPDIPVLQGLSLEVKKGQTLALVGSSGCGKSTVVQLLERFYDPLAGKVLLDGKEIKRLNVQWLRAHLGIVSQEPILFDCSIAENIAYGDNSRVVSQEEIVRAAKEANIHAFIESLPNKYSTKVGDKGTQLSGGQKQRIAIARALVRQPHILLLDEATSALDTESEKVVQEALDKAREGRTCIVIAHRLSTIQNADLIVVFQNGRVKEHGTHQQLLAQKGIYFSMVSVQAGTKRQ
- ASSAY_EXPLANATION: Inhibition of P-glycoprotein-mediated rhodamine 123 uptake expressed in multidrug-resistant human K562/A02 cells assessed as fluorescence activity ratio at 10 uM after 72 hrs by flow cytometry relative to untreated control
- Type: cell-based
- TEST_CONDITIONS: k562/a02, 72 h
ENDPOINT: Ratio

Before answering, review these 3 worked examples.
compound=COc1cc2c(c3c1OCO3)-c1c(cc(OC)c3c1OCO3)C(=O)N(CCN1CCN(Cc3ccccc3)CC1)C2 endpoint=Ratio reported=14.11
compound="COc1ccc(CCN(C)CCCC(C#N)(c2ccc(OC)c(OC)c2)C(C)C)cc1OC (centres undefined) [VERAPAMIL]" endpoint=Ratio reported=4.16
compound=COc1cc2c(c3c1OCO3)-c1c(cc(OC)c3c1OCO3)C(=O)N(CCN1CCN(C)CC1)C2 endpoint=Ratio reported=1.03

(A) CCCN(CCC)CCN1Cc2cc(OC)c3c(c2-c2c(cc(OC)c4c2OCO4)C1=O)OCO3
(B) COc1cc2c(c3c1OCO3)-c1c(cc(OC)c3c1OCO3)C(=O)N(CCN(C)C)C2
In: Would you kindly point out which of A and B has the smaller Ratio figure? Let me know the label of the one you choose.
Out: B

(I) COc1cc2c(c3c1OCO3)-c1c(cc(OC)c3c1OCO3)C(=O)N(CCN1CCCCC1)C2
(II) COc1cc2c(c3c1OCO3)-c1c(cc(OC)c3c1OCO3)C(=O)N(CCN1CCCC1)C2
In: So which one has the bigger Ratio here, I or II ? Let me know the label of the one you choose.
Out: I
